Reference for the values: paper PMC4552634

Each entry below carries its reported % Inhibition.
system: P. falciparum stage V gametocytes; parameters: BacTiter-Glo ATP luminescence viability of purified stage V gametocytes in 384-well plates, per cent inhibition versus DMSO; settings: 48 h, 5 µM; inhibitor
About 3,200 (25%) of roughly 13,000 compounds showed an effect of 50% or more. The list shows a part of the results.
Express it in %; write the number only.

Sample records with % Inhibition:
Compound	Units of measure	% Inhibition
CC(Sc1nc2sccc2c(=O)n1C)C(=O)Nc1ccc2c(c1)OCO2 (stereo not drawn) [TCMDC-125026]	%	100.7
CSc1nccc(-c2ccc3ccnc(N)c3c2)n1 [TCMDC-136641]	%	63.58
CCNCc1cccc(-c2ccc3ccnc(N)c3c2)c1 [TCMDC-136869]	%	65.98
CNc1cc(-c2ccc3ccnc(N)c3c2)nc(N)n1.O=CO [TCMDC-136539]	%	29.83
CN(C)C(CNC(=O)c1cc(-c2ccncc2)c(-c2ccc(NC(=O)Nc3ccccc3)cc2)o1)c1ccccc1 (stereo not drawn) [TCMDC-135763]	%	0.5152
Cc1cccc2[nH]c(-c3cccc(-c4ccc(NC(=O)Nc5ccc6c(c5)OCO6)cc4)c3)nc12 [TCMDC-133163]	%	-27.37

# query: % Inhibition of entry O=C(CSc1nc2ccccc2c(=O)n1C1CC1)Nc1cc(C(F)(F)F)ccc1Cl [TCMDC-123578] -84.13

# query: % Inhibition of entry Nc1ccc(-c2ccc3ccnc(N)c3c2)cn1 [TCMDC-133428] 40.89

# query: % Inhibition of entry CC1CCCCN1Cc1cccc(-c2c[nH]c3nc(NC4CCCC4)ncc23)c1 (stereo not drawn) [TCMDC-133776] -28.36
